From: the supplement of paper PMC4932681

Tested on: BT-474
Test name: viability inhibition at highest dose (% inhibition); higher = more growth inhibition
Test conditions: 4-OH-tamoxifen in medium 1 µM; 72 h
Where a name gives a salt, the structure may show the parent alone.
Record form. Attribute: viability inhibition at highest dose. Fill in for each entry.

For COc1cc(CCc2cc(NC(=O)c3ccc(N4CC(C)NC(C)C4)cc3)n[nH]2)cc(OC)c1 (stereo not drawn) [AZD4547] (drug 1000 nM) on BT-474, measured viability inhibition at highest dose was 5.15

For O=C1CCC(N2C(=O)c3ccccc3C2=O)C(=O)N1 (stereo not drawn) [Thalidomide] (drug 10000 nM) on BT-474, measured viability inhibition at highest dose was 13.6

For COc1cccc2cc(-c3nc([C@H]4CC[C@H](C(=O)O)CC4)n4ncnc(N)c34)[nH]c12 [OSI-027] (drug 10000 nM) on BT-474, measured viability inhibition at highest dose was 47.5

For COc1cc2c(Oc3ccc4[nH]c(C)cc4c3F)ncnc2cc1OCCCN1CCCC1 [Cediranib (AZD2171, Recentin)] (drug 1000 nM) on BT-474, measured viability inhibition at highest dose was 39.4

For CC[C@@]1(O)C(=O)OCc2c1cc1n(c2=O)Cc2cc3ccccc3nc2-1 [Camptothecin] (drug 5000 nM) on BT-474, measured viability inhibition at highest dose was 0.861

For Oc1ccc2c(c1)CC[C@H](c1ccccc1)[C@@H]2c1ccc(OCCN2CCCC2)cc1 [Lasofoxifene] (drug 1000 nM) on BT-474, measured viability inhibition at highest dose was 24.2

For O=C(c1ccc(OCCN2CCCCC2)cc1)c1c(-c2ccc(O)cc2)sc2cc(O)ccc12 [Raloxifene HCl] (drug 10000 nM) on BT-474, measured viability inhibition at highest dose was 54

For C[C@]12CC[C@@H]3c4ccc(OC(=O)N(CCCl)CCCl)cc4CC[C@H]3[C@@H]1CC[C@@H]2O [Estramustine] (drug 990000 nM) on BT-474, measured viability inhibition at highest dose was -0.556

For CC1=C(/C=C/C(C)=C/C=C/C(C)=C/C(=O)O)C(C)(C)CCC1 [Tretinoin] (drug 10000 nM) on BT-474, measured viability inhibition at highest dose was -18.6

For C[C@H]1C[C@@H]2[C@H]([C@@H](O)C[C@@]3(C)[C@H]2CC[C@]3(O)C(=O)CO)[C@@]2(C)C=CC(=O)C=C12 [Methylprednisolone] (drug 10000 nM) on BT-474, measured viability inhibition at highest dose was -20.6

For Oc1ncc(N(CCCl)CCCl)c(O)n1 [Uracil mustard] (drug 10000 nM) on BT-474, measured viability inhibition at highest dose was -3.71

For CC[C@]1(O)C[C@H]2CN(CCc3c([nH]c4ccccc34)[C@@](C(=O)OC)(c3cc4c(cc3OC)N(C=O)[C@H]3[C@@](O)(C(=O)OC)[C@H](OC(C)=O)[C@]5(CC)C=CCN6CC[C@]43[C@@H]65)C2)C1 [Vincristine] (drug 10000 nM) on BT-474, measured viability inhibition at highest dose was 83.8

For COc1nc(N)nc2c1ncn2[C@@H]1O[C@H](CO)[C@@H](O)[C@@H]1O [Nelarabine] (drug 10000 nM) on BT-474, measured viability inhibition at highest dose was 16.3

====

Test system: BT-474
Test name: drug sensitivity score (DSS) (DSS (dimensionless)); higher = more sensitive; extreme values may be limits of the assay
Test conditions: 4-OH-tamoxifen in medium 1 µM; 72 h
Readout kind: drug sensitivity score
Just the number, please, no unit after it.

For `NC(=O)c1ccc(I)c([N+](=O)[O-])c1` on BT-474, measured drug sensitivity score was 0

For `O=C(Nc1ccncc1)C(=O)c1cn(Cc2ccc(Cl)cc2)c2ccccc12` on BT-474, measured drug sensitivity score was 4.58

For `COC1=CC(c2cc3ccccc3[nH]2)=N/C1=C\c1[nH]c(C)cc1C` on BT-474, measured drug sensitivity score was 0.367

For `Nc1ncn([C@@H]2O[C@H](CO)[C@@H](O)[C@H]2O)c(=O)n1` on BT-474, measured drug sensitivity score was 0.194

For `C[C@]1(c2nc3c(C(N)=O)cccc3[nH]2)CCCN1` on BT-474, measured drug sensitivity score was 0

For `CN(C)C/C=C/C(=O)Nc1cc2c(Nc3ccc(F)c(Cl)c3)ncnc2cc1O[C@H]1CCOC1` on BT-474, measured drug sensitivity score was 20.5

For `Cc1cccc(-c2nn3c(c2-c2ccnc4ccc(C(N)=O)cc24)CCC3)n1` on BT-474, measured drug sensitivity score was 0

For `CCc1c2c(nc3ccc(OC(=O)N4CCC(N5CCCCC5)CC4)cc13)-c1cc3c(c(=O)n1C2)COC(=O)[C@]3(O)CC` on BT-474, measured drug sensitivity score was 0

====

System: ZR-75-1
Test name: viability inhibition at highest dose (% inhibition); higher = more growth inhibition
Test conditions: 4-OH-tamoxifen in medium 0 µM; 72 h
Record form. Attribute: viability inhibition at highest dose. Fill in for each entry.
Just the number, please, no unit after it.

What the record says about COc1ccc(S(=O)(=O)Nc2cccnc2Nc2ccc(O)cc2)cc1 [ABT-751] (drug 10000 nM) : viability inhibition at highest dose is 36.3

What the record says about C1CN1c1nc(N2CC2)nc(N2CC2)n1 [Triethylenemelamine] (drug 10000 nM) : viability inhibition at highest dose is -18.1

What the record says about O=C(Nc1c[nH]nc1-c1nc2ccc(CN3CCOCC3)cc2[nH]1)NC1CC1 [AT9283] (drug 1000 nM) : viability inhibition at highest dose is -44.4

What the record says about CCCCC(=O)OCC(=O)[C@]1(O)Cc2c(O)c3c(c(O)c2[C@@H](O[C@H]2C[C@H](NC(=O)C(F)(F)F)[C@H](O)[C@H](C)O2)C1)C(=O)c1c(OC)cccc1C3=O [Valrubicin] (drug 10000 nM) : viability inhibition at highest dose is 59.8

====

Test system: ZR-75-1
Test name: viability inhibition at highest dose (% inhibition); higher = more growth inhibition
Test conditions: 4-OH-tamoxifen in medium 0 µM; 72 h
Counter-ions that a name gives are not always drawn.
Readout kind: viability inhibition at highest dose
Just the number, please, no unit after it.

What the record says about CO[C@H]1C[C@@H]2CC[C@@H](C)[C@@](O)(O2)C(=O)C(=O)N2CCCC[C@H]2C(=O)O[C@H]([C@H](C)C[C@@H]2CC[C@@H](OC(=O)C(C)(CO)CO)[C@H](OC)C2)CC(=O)[C@H](C)/C=C(\C)[C@@H](O)[C@@H](OC)C(=O)[C@H](C)C[C@H](C)/C=C/C=C/C=C/1C [Temsirolimus] (drug 100 nM) : viability inhibition at highest dose is 33.7

What the record says about CCCCCCCCc1ccc(CCC(N)(CO)CO)cc1 [Fingolimod] (drug 10000 nM) : viability inhibition at highest dose is 40.8

What the record says about CC/C(=C(\c1ccccc1)c1ccc(OCCN(C)C)cc1)c1ccccc1 [Tamoxifen citrate] (drug 10000 nM) : viability inhibition at highest dose is 9.17

What the record says about COc1cc2nccc(Oc3ccc(NC(=O)Nc4cc(C)on4)c(Cl)c3)c2cc1OC [Tivozanib (AV-951)] (drug 10000 nM) : viability inhibition at highest dose is 13.6

====

Record form. Attribute: relative IC50. Fill in for each entry.
Test system: BT-474
Test name: relative IC50 (midpoint of fitted logistic curve, plateau may be below 50% inhibition; CellTiter-Glo viability); higher = less potent
Test conditions: 4-OH-tamoxifen in medium 0 µM; 72 h

What the record says about CC(=O)[C@]1(O)Cc2c(O)c3c(c(O)c2[C@@H](O[C@H]2C[C@H](N)[C@H](O)[C@H](C)O2)C1)C(=O)c1ccccc1C3=O [Idarubicin] : relative IC50 is 0.309 µM

What the record says about C=C(c1ccc(C(=O)O)cc1)c1cc2c(cc1C)C(C)(C)CCC2(C)C [Bexarotene] : relative IC50 is > 10 µM

What the record says about N[C@@H](CSC(c1ccccc1)(c1ccccc1)c1ccccc1)C(=O)O [S-trityl-L-cysteine] : relative IC50 is 40 µM

What the record says about Cc1ccc(-n2nc(C(C)(C)C)cc2NC(=O)Nc2ccc(OCCN3CCOCC3)c3ccccc23)cc1 [Doramapimod (BIRB 796)] : relative IC50 is > 10 µM

What the record says about `Cc1cc(Nc2cc(CN3CCOCC3)c3nc(C)c(Cc4ccc(Cl)cc4F)n3n2)n[nH]1` : relative IC50 is > 10 µM

What the record says about Oc1nc(-c2ccc(C(F)(F)F)cc2)nc2c1CSCC2 [XAV-939] : relative IC50 is > 10 µM

What the record says about `c1ccc2c(CCNc3ccc(Nc4ccncc4)cc3)c[nH]c2c1` : relative IC50 is > 10 µM

What the record says about O=P(O)(O)C(O)(Cn1ccnc1)P(=O)(O)O [Zoledronic acid] : relative IC50 is > 10 µM

What the record says about `CN1CCC(COc2cnc(-c3cccc(Cn4nc(-c5cccc(C#N)c5)ccc4=O)c3)nc2)CC1` : relative IC50 is > 1 µM
